experiment: Retention time of the compound by RP-HPLC analysis; assay type: physicochemical

| compound | Retention_time, min |
| --- | --- |
| CCOC(=O)C1=C(C(=O)c2ccc(OC)cc2)C(c2cccc(C=O)c2)NC(=O)N1 (centres undefined) | 24.7 |
| CCOC(=O)C1=C(C(=O)c2ccc(OC)cc2)C(c2ccc(-c3cccc(C(F)(F)F)c3)o2)NC(=S)N1 (centres undefined) | 32.3 |
| CCOC(=O)C1=C(C(=O)c2ccc(OC)cc2)[C@H](c2ccc(-c3cccc(C(F)(F)F)c3)o2)NC(=O)N1C | 30.3 |
| CCOC(=O)C1=C(C(=O)c2ccc(OC)cc2)[C@H](c2ccc(-c3cccc(C(F)(F)F)c3)o2)NC(=O)N1 | 34.2 |

src = ChEMBL document CHEMBL3286213
